target: 3-oxo-5-alpha-steroid 4-dehydrogenase 1 (Homo sapiens); test: Inhibition of human 5-alpha reductase 1 expressed in LNCap cells at 1 uM; assay type: cell-based

- Compound: "CCCN(CCC)C(=O)Oc1ccc(C(CC)(CC)c2ccc(N(C)C(C)=O)cc2)cc1"
  inhibition (%): 26
- Compound: "CCC(CC)(c1ccc(OC(=O)N(Cc2ccccc2)Cc2ccccc2)cc1)c1ccc(N(C)C(C)=O)cc1"
  inhibition (%): 51
- Compound: "CCCCN(CCCC)C(=O)Oc1ccc(C(CC)(CC)c2ccc(N(C)C(C)=O)cc2)cc1"
  inhibition (%): 32
- Compound: "CCC(C)N(C(=O)Oc1ccc(C(CC)(CC)c2ccc(N(C)C(C)=O)cc2)cc1)C(C)CC (stereo not given)"
  inhibition (%): 22
- Compound: "CCC(CC)(c1ccc(OC(=O)N2CCCCCCC2)cc1)c1ccc(N(C)C(C)=O)cc1"
  inhibition (%): 20

---

Biological target: UniProtKB P18405
Sequence (whole entry): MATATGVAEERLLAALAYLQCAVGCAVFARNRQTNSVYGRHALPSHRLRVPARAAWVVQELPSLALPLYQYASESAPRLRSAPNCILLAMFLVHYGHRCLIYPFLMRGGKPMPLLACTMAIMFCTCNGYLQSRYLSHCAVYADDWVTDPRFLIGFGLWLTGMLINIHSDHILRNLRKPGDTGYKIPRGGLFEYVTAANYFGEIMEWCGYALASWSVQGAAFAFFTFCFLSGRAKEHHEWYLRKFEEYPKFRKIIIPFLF
Assay: Inhibition of human 5-alpha reductase 1 expressed in LNCap cells at 10 uM
Assay type: cell-based
Property: inhibition (%)

- Smiles structure: "CCC(CC)(c1ccc(OC(=O)N2CCCCC2)cc1)c1ccc(N(C)C(C)=O)cc1"
  Reported measurement: 68
- Smiles structure: "CCN(CC)C(=O)Oc1ccc(C2(c3ccc(N(C)C(C)=O)cc3)CCC2)cc1"
  Reported measurement: 16
- Smiles structure: "CCN(CC)C(=O)Oc1ccc(C(C)(C)c2ccc(N(C)C(C)=O)cc2)cc1"
  Reported measurement: 16
- Smiles structure: "CCN(CC)C(=O)Oc1ccc(C(CC)(CC)c2ccc(N(C)C(C)=O)cc2)cc1C"
  Reported measurement: 56
- Smiles structure: "CCN(CC)C(=O)Oc1ccc(C(CC)(CC)c2ccc(N(C)C(C)=O)cc2)cc1"
  Reported measurement: 65
- Smiles structure: "CCC(CC)(c1ccc(OC(=O)N(C)C)cc1)c1ccc(N(C)C(C)=O)cc1"
  Reported measurement: 29
- Smiles structure: "CCC(CC)(c1ccc(OC(=O)N2CCCCCC2)cc1)c1ccc(N(C)C(C)=O)cc1"
  Reported measurement: 70
- Smiles structure: "CCC(CC)(c1ccc(OC(=O)N(C(C)C)C(C)C)cc1)c1ccc(N(C)C(C)=O)cc1"
  Reported measurement: 72
- Smiles structure: "CCCC(CCC)(c1ccc(OC(=O)N(CC)CC)cc1)c1ccc(N(C)C(C)=O)cc1"
  Reported measurement: 27
- Smiles structure: "CCN(CC)C(=O)Oc1ccc(C2(c3ccc(N(C)C(C)=O)cc3)CCCCCC2)cc1"
  Reported measurement: 25
- Smiles structure: "CCN(CC)C(=O)Oc1ccc(C(CC)(CC)c2ccc(NC(C)=O)c(C)c2)cc1C"
  Reported measurement: 17
- Smiles structure: "CCC(CC)(c1ccc(OC(=O)N2CCOCC2)cc1)c1ccc(N(C)C(C)=O)cc1"
  Reported measurement: 15
- Smiles structure: "CCC(CC)(c1ccc(OC(=O)N2CCN(C)CC2)cc1)c1ccc(N(C)C(C)=O)cc1"
  Reported measurement: 17
- Smiles structure: "CCC(CC)(c1ccc(OC(=O)N2CCCC2)cc1)c1ccc(N(C)C(C)=O)cc1"
  Reported measurement: 57
- Smiles structure: "CCCN(CCC)C(=O)Oc1ccc(C(CC)(CC)c2ccc(N(C)C(C)=O)cc2)cc1"
  Reported measurement: 77
- Smiles structure: "CCN(CC)C(=O)Oc1ccc(C(CC)(CC)c2ccc(N(C)C(C)=O)c(C)c2)cc1C"
  Reported measurement: 22
- Smiles structure: "CCN(CC)C(=O)Oc1ccc(C(CC)(CC)c2ccc(N(C)C(C)=O)c(C)c2)cc1"
  Reported measurement: 25
- Smiles structure: "CCN(CC)C(=O)Oc1ccc(C2(c3ccc(N(C)C(C)=O)cc3)CCCCC2)cc1"
  Reported measurement: 46
- Smiles structure: "CCN(CC)C(=O)Oc1ccc(C2(c3ccc(N(C)C(C)=O)cc3)CCCC2)cc1"
  Reported measurement: 5
